target: CETP (Homo sapiens, UniProt P11597); construct: from tissue; host or cells: human plasma from normal volunteers; experiment: CETP in vitro assay ([3H]CE-HDL transfer, Amersham kit TRKQ7005; modified protocol in human plasma); assay type: biochemical; details: 1 μM compound; multiple values = multiple measurements
Sequence (P11597 18-493): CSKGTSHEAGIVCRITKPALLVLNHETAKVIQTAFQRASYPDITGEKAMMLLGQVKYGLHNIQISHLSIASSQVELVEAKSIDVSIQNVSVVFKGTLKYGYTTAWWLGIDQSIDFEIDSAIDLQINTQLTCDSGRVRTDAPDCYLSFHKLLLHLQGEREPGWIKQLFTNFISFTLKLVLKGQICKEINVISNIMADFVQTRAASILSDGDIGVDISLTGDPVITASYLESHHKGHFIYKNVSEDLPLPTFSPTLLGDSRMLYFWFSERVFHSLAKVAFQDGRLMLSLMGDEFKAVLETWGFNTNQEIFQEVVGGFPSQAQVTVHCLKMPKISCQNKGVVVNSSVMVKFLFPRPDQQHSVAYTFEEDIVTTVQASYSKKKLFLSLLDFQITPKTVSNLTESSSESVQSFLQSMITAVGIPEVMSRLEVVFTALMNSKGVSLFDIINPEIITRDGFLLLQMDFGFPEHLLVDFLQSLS
experimental-readout: inhibition at 1 µM (%)
The response must be a number in % with no trailing unit.

The examples below pair each entry with its known result.
{"molecule": "O[C@@H](CN1c2cccc(-c3cc(F)c(F)c(F)c3)c2OC[C@@H]1c1cccc(OC(F)(F)C(F)F)c1)C(F)(F)F", "experimental-readout": "inhibition at 1 µM", "number": 106}
{"molecule": "OCCCN1c2cccc(-c3cccc(OC(F)(F)F)c3)c2OCC1c1cccc(OC(F)(F)C(F)F)c1 (stereo not shown)", "experimental-readout": "inhibition at 1 µM", "number": 10}
{"molecule": "COC(=O)N1c2cccc(-c3cccc(OC(F)(F)F)c3)c2OCC1c1cccc(OC(F)(F)C(F)F)c1 (stereo not shown)", "experimental-readout": "inhibition at 1 µM", "number": 16}
{"molecule": "CN(C)CCN1c2cccc(-c3cccc(OC(F)(F)F)c3)c2OCC1c1cccc(OC(F)(F)C(F)F)c1 (stereo not shown)", "experimental-readout": "inhibition at 1 µM", "number": 9}
{"molecule": "OC[C@@H](O)CN1c2cccc(-c3cccc(OC(F)(F)F)c3)c2OC[C@H]1c1cccc(OC(F)(F)C(F)F)c1", "experimental-readout": "inhibition at 1 µM", "number": 13}
{"molecule": "CC(C)C(O)CN1c2cccc(-c3cccc(OC(F)(F)F)c3)c2OCC1c1cccc(OC(F)(F)C(F)F)c1 (stereo not shown)", "experimental-readout": "inhibition at 1 µM", "number": 84}

# next molecule below
## Task Return inhibition at 1 µM (reported value) for this molecule: O[C@H](CN1c2cccc(-c3cccc(OC(F)(F)F)c3)c2OC[C@H]1c1cccc(OC(F)(F)C(F)F)c1)C(F)(F)F
## Result 23
